# Tested on: RAW264.7
# test.description: Cytotoxicity against ICR mouse RAW264.7 cells assessed as effect on cell proliferation at 10 uM after 24 hrs by MTT assay
# Type: cell-based
# assay.context: raw264.7, 24 h
reported.endpoint: Activity

What the record says about COc1cc(/C=C/C(=O)N2CCC=CC2=O)cc(OC)c1OC : Activity is Non-Toxic

Recorded result, COc1cc(/C=C2\CCCN(C(=O)/C=C/c3cccc(Br)c3)C2=O)cc(OC)c1OC , Activity: Non-Toxic

Entry under test: COc1cccc(/C=C/C(=O)N2CCC/C(=C\c3cc(OC)c(OC)c(OC)c3)C2=O)c1OC . Its Activity was Non-Toxic
